Where these numbers come from: patent US20250340537A1

- MEASURED ON: H723R-pendrin (Homo sapiens, UniProt O43511, H723R)
- TEST PROTOCOL: YFP fluorescence quenching assay (Cl−/I− exchange activity of pendrin)
- EXPERIMENTAL SETUP: PANC-1 cells stably expressing human H723R-pendrin and YFP-F46L/H148Q/I152L; compound incubation 20-24 hours; iodide influx
Provide the recorded EC50 for the entries that follow.

COMPOUND: NC1=C(c2cncc(-c3ccc4nccnc4c3)n2)C(=O)CN1c1ccccc1Cl
EC50: > 10 µM
--
COMPOUND: NC1=C(c2cncc(-c3ccc(O)c(O)c3)n2)C(=O)CN1c1ccccc1Cl
EC50: < 5 µM

Batch request: EC50 per item, same order as input.
1. COc1ccc(-c2cncc(C3=C(N)N(c4ccccc4Cl)CC3=O)n2)c(OC)c1
2. COc1ccc(-c2cc(C3=C(N)N(CC4CCCC4)CC3=O)ccn2)cc1OC
3. NC1=C(c2cncc(-c3ccc(O)c(OC4CC(O)C4)c3)n2)C(=O)CN1CC1CCCC1 (centres unmarked)
4. COc1cc(-c2cncc(C3=C(N)N(CC4CCCC4)CC3=O)n2)ccc1O
5. NC1=C(c2cncc(-c3ccc(O)c(O)c3)c2)C(=O)CN1CCC(F)(F)F
6. NC1=C(c2cncc(-c3ccc4c(c3)OCO4)n2)C(=O)CN1c1ccccc1Cl

Reply text:
1. 5 to 10 µM
2. > 10 µM
3. < 5 µM
4. < 5 µM
5. > 10 µM
6. > 10 µM

---

- MEASURED ON: H723R-pendrin (Homo sapiens, UniProt O43511, H723R)
- Sequence (O43511 1-780 H723R): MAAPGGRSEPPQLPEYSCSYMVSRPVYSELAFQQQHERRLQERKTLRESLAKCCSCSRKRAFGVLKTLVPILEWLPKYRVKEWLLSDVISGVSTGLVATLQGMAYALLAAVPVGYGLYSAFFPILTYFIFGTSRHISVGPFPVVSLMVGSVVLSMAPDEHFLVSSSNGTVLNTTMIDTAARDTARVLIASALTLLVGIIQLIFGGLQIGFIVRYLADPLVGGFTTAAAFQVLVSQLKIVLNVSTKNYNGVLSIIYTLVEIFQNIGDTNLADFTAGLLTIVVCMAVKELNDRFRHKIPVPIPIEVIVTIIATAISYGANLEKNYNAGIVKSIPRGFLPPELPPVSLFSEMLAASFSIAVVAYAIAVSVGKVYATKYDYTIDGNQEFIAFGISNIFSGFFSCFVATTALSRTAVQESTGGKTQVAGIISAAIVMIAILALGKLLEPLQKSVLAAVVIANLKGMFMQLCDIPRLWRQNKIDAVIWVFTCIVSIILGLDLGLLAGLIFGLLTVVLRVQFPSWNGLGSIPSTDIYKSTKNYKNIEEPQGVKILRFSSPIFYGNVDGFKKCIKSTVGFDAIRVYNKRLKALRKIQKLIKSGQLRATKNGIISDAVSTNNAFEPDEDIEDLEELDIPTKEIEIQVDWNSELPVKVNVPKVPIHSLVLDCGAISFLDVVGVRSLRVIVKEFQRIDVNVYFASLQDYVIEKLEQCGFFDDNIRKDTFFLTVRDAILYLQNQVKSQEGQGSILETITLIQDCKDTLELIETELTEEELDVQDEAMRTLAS
- TEST PROTOCOL: YFP fluorescence quenching assay (Cl−/I− exchange activity of pendrin)
- EXPERIMENTAL SETUP: PANC-1 cells stably expressing human H723R-pendrin and YFP-F46L/H148Q/I152L; compound incubation 20-24 hours; iodide influx
Provide the recorded EC50 for the entries that follow.

Reference set, count: 5
COMPOUND: COc1ccc(-c2cncc(C3=C(N)N(c4ccccc4F)CC3=O)n2)cc1OC
EC50: 5 to 10 µM
--
COMPOUND: COc1ccc(-c2ccnc(C3=C(N)N(c4ccccc4F)CC3=O)n2)cc1OC
EC50: > 10 µM
--
COMPOUND: NC1=C(c2cncc(-c3ccc(O)c(O)c3)n2)C(=O)CN1C1CCC(F)(F)C1 (centres unmarked)
EC50: < 5 µM
--
COMPOUND: NC1=C(c2cncc(-c3ccc(O)c(O)c3)n2)C(=O)CN1CC1CCCC1
EC50: < 5 µM
--
COMPOUND: COc1ccc(-c2cc(C3=C(N)N(c4ccccc4Cl)CC3=O)ncn2)cc1OC
EC50: > 10 µM

Batch request: EC50 per item, same order as input.
1. COc1ccc(-c2ccnc(C3=C(N)N(CC4CCOC4)CC3=O)n2)cc1OC (centres unmarked)
2. COc1ccc(-c2cncc(C3=C(N)N(c4ccccc4OC)CC3=O)n2)cc1OC
3. NC1=C(c2cncc(-c3ccc4nc[nH]c4c3)n2)C(=O)CN1c1ccccc1Cl

Reply text:
1. > 10 µM
2. > 10 µM
3. > 10 µM
